- Protocol Text: melting temperature; fluorescence melt of hairpins on a sequencing array, two-state fit, raised by 9.35 °C to match UV melts
- Protocol Conditions: sodium 0.088 M
The label fulfilled is reserved for Tm strictly under 50 °C; not fulfilled covers values equal to or above it.

>>> print(df.to_string())
                          query_sequence  group_label
0  GTTTTGGGAAACTAGAAC (((.(.(....).).)))    fulfilled

Dear reviewer, please state whether GGTGCGGGAAACTGCGCC ((.((.(....).)).)) has Tm strictly beneath 50 °C.
not fulfilled

Dear reviewer, please state whether GCGAACGAAAGTTCCCGC ((((((....)))..))) has Tm strictly beneath 50 °C.
fulfilled

Dear reviewer, please state whether GCGTTCAGACGC ((((....)))) has Tm strictly beneath 50 °C.
not fulfilled

Dear reviewer, please state whether GATCTTCTACAAGATC ((((((....)))))) has Tm strictly beneath 50 °C.
fulfilled

Dear reviewer, please state whether CGTCAGAAATGACG (((((....))))) has Tm strictly beneath 50 °C.
not fulfilled

Dear reviewer, please state whether GCGCGGCGAAAGCTCCGC (((..((....))..))) has Tm strictly beneath 50 °C.
not fulfilled

Dear reviewer, please state whether GCGATGCGAAAGCCTTGC ((.(.((....)).).)) has Tm strictly beneath 50 °C.
fulfilled

Dear reviewer, please state whether GTACGGGGAAACCTGTGC (.((.((....)).)).) has Tm strictly beneath 50 °C.
fulfilled

Dear reviewer, please state whether GATAGCGAAAGCTAAATC ((((((....)))..))) has Tm strictly beneath 50 °C.
fulfilled

Dear reviewer, please state whether GCCCGAACGAAAGTTGGC (((..(((....)))))) has Tm strictly beneath 50 °C.
fulfilled

Dear reviewer, please state whether GAGAACCCGAAAGGGCTC (((..(((....)))))) has Tm strictly beneath 50 °C.
fulfilled

Dear reviewer, please state whether GCGCCCTCGAAAGAGCGC (((..(((....)))))) has Tm strictly beneath 50 °C.
not fulfilled

Dear reviewer, please state whether GACATTGGAAACAATGCC (.(((((....))))).) has Tm strictly beneath 50 °C.
fulfilled

Dear reviewer, please state whether TGCGGGAAACCGCA (((((....))))) has Tm strictly beneath 50 °C.
not fulfilled

Dear reviewer, please state whether GTCGATACGAAAGTAGAC (((..(((....)))))) has Tm strictly beneath 50 °C.
fulfilled

Dear reviewer, please state whether GATCCGGTACCGGATC ((((((....)))))) has Tm strictly beneath 50 °C.
not fulfilled

Dear reviewer, please state whether GCGCAGGGAAACCCGCAC (.((.((....)).)).) has Tm strictly beneath 50 °C.
fulfilled

Dear reviewer, please state whether GGTGTTGGAAACAGCACC ((((.((....)).)))) has Tm strictly beneath 50 °C.
not fulfilled

====

- Protocol Text: melting temperature; fluorescence melt of hairpins on a sequencing array, two-state fit, raised by 9.35 °C to match UV melts
- Protocol Conditions: sodium 0.088 M
// reported Tm per item
Answer format: numeric, °C implied, no suffix.

>>> df
                          query_sequence  uom  reported_value
0        GATCAACTTTTGATC ((((((...))))))   °C            43.2
1  GCTCATACGAAAGTAAGC (((..(((....))))))   °C              28
2  GCGACTGGAAACAACCGC (((..((....))..)))   °C            29.2

Output measured Tm for this item: GAACCCGAAAGGGATTTC ((((((....)))..)))
29.5

Output measured Tm for this item: CCTATGAAAATAGG (((((....)))))
41.2

Output measured Tm for this item: GACGACCGAAAGGTGTC (((.(((....))))))
52.2

====

- Protocol Text: folding enthalpy; higher = less favourable; fluorescence melt of hairpins on a sequencing array, two-state fit
- Protocol Conditions: sodium 0.088 M
// reported folding enthalpy per item
Answer format: numeric, kcal/mol implied, no suffix.

// below: answered sequences
>>> print(df.to_string())
                          query_sequence       uom  reported_value
0    CGTGCGGAAACGCGACG ((((((....))).)))  kcal/mol           -23.5
1  CGCTCGGAAACGACGGCG ((((((....)))..)))  kcal/mol           -22.7
2  GCGATAGGAAACTATCGC (((((((....)))))))  kcal/mol           -57.2
3      GATCGCTGACGCGATC ((((((....))))))  kcal/mol           -36.5
4          ACGTAGAAATACGT (((((....)))))  kcal/mol           -19.9
5  GCGAATGGAAACATTTGC ((.((((....)))).))  kcal/mol           -33.6

Output measured folding enthalpy for this item: GGGCTAGAAATAGCCC ((((((....))))))
-30.3

Output measured folding enthalpy for this item: GTGTTCGGAAACAAACAC (((((.(....).)))))
-29.7

Output measured folding enthalpy for this item: GATCCGTAGTCGGATC ((((((....))))))
-36

Output measured folding enthalpy for this item: GACTTGCGAAAGCAGGTC (((.(((....))).)))
-34.6

Output measured folding enthalpy for this item: GATCCCGAAAGGGAATC ((((((....))).)))
-14.5

Output measured folding enthalpy for this item: GTGGACGGAAACACCCAC ((((..(....)..))))
-12.2

Output measured folding enthalpy for this item: GATCCTTGGCAGGATC ((((((....))))))
-35.3

====

- Protocol Text: melting temperature; fluorescence melt of hairpins on a sequencing array, two-state fit, raised by 9.35 °C to match UV melts
- Protocol Conditions: sodium 0.088 M
Measure Name: Tm (°C)
Answer format: numeric, °C implied, no suffix.

// below: answered sequences
>>> df
                          query_sequence  measure_name  reported_value
0      GATCTTATGAAAGATC ((((((....))))))            Tm            40.6
1        GATCTAGTTTAGATC ((((((...))))))            Tm            40.7
2  GAGCCCGCGAAAGCGCTC (((..(((....))))))            Tm            39.2
3  GCCCCGCGAAAGCCTGGC (((..((....))..)))            Tm            39.5

Lab note: next sequence to report on.
Output measured Tm for this item: GAGCTTGCGAAAGCACTC (((..(((....))))))
39.7

====

- Protocol Text: melting temperature; fluorescence melt of hairpins on a sequencing array, two-state fit, raised by 9.35 °C to match UV melts
- Protocol Conditions: sodium 0.088 M
Measure Name: Tm (°C)
Answer format: numeric, °C implied, no suffix.

Output measured Tm for this item: GATTACGAAAGTAAGATC ((((((....)))..)))
39

Output measured Tm for this item: GATCAAAGGCTTGATC ((((((....))))))
41

Output measured Tm for this item: CGTCACGGAAACGTACG (((.(((....))))))
40

====

- Protocol Text: melting temperature; fluorescence melt of hairpins on a sequencing array, two-state fit, raised by 9.35 °C to match UV melts
- Protocol Conditions: sodium 0.088 M
Measure Name: Tm (°C)
Answer format: numeric, °C implied, no suffix.

In [3]: df
Out[3]:
                          query_sequence  uom  reported_value
0  GGGGGTTCGAAAGAACCC (((..(((....))))))   °C            58.9
1    GATCCCGAAAGGGAATC ((((((....))).)))   °C            49.6
2  GGATCCGGAAACGAATCC ((((.((....)).))))   °C            41.8
3    GAATTGCGAAAGCATTC (((.(((....))))))   °C            36.1
4  GAACTGGGAAACTGGTTC ((((..(....)..))))   °C            33.3
5    GCTTTACGAAAGTAAGC (((.(((....))))))   °C            46.2
6  GCTATGGGAAACTATAGC (((((.(....).)))))   °C            43.7
7  GCACCGGGAAACCGACGC ((..(((....)))..))   °C              38
8  GAGTAAGGAAACTTACCC (.(((((....))))).)   °C            28.4
9  GCCCTTCGAAAGAATGGC (((.(((....))).)))   °C            47.4

Output measured Tm for this item: GTTGATGGAAACATTAAC (((.(((....))).)))
37.5

// data source = the array DNA melting data of Ke et al. (doi:10.1101/2024.01.08.574731)
